Just for reference, patent US20250368734A1 is where these values come from.

- Target entity: T1, cynomolgus monkey GPRC5D (cynomolgus monkey)
- T1 construct: whole, on cells; HEK293T-cynoGPRC5D cells; also called cynoGPRC5D
- Method: FACS, HEK293T-cynoGPRC5D cells
Parameter measured: Top
Number only, no unit.

Consider the reported Top for these binders:
binder="ch98A3A8 (antibody, V domains shown) VH: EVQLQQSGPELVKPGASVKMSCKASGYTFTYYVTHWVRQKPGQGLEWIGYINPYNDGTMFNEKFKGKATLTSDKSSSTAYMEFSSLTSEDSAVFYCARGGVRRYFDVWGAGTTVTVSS VL: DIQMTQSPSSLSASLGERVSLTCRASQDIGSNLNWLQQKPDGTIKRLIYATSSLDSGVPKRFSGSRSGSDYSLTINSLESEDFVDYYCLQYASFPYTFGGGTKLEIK" assay_value=46800
binder="ch96C9E7 (antibody, V domains shown) VH: EVQLQQSGPELVKPGASVKMSCKASGYTFTYYILHWVKQKPGQGLEWIGYFNPYNDGNKFNERFRGKATLTSDKSSSTAYMELNSLTSEDSAVYFCARGGVRRYFDVWGAGTTVTVSS VL: DIQMTQSPSSLSASLGERVSLTCRASQDIGSNLNWLQQEPDGTIKRLISATFSLDSGVPKRFSGSRSGSDYSLTISSLESEDFVNYYCLQYASFPYTFGGGTKLEIK" assay_value=34300

Item: ch89F11E3 (antibody, V domains shown) VH: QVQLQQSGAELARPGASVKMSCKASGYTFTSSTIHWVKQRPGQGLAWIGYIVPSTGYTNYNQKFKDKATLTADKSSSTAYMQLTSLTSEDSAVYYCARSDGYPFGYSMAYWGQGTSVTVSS VL: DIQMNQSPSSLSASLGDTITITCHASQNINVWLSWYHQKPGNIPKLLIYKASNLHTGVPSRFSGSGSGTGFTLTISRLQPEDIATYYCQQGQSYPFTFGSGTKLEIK | Top: 40500
